These data points were gathered from patent US20260279694A1.

# assay info: Measurement of acid dissociation constant (pKa) by titration in methanol
# Format: physicochemical
# conditions: 25° C.; 1 part by weight acid in 99 parts methanol titrated with 0.1 mol/L methanolic potassium hydroxide; pH at half the titrant of first equivalence point
measurement kind: pKa
Reply briefly: the number, and no unit.

**Query** pKa for O=C(O)CCCCCCCC(=O)O [Azelaic acid, azelaic acid, reference compound] ?
**Result** 6.7

**Query** Requested read-out: pKa. Entry: O=C(O)c1ccc(C(=O)O)c(C(=O)O)c1 [Trimellitic acid, trimellitic acid, reference compound]
**Result** 3.5

**Query** What pKa value was documented for this molecule, OB(O)O [Boric acid, boric acid, reference compound] ?
**Result** 9.8

**Query** Fill in: pKa of O=C(O)c1ccc(C(=O)O)o1 [2,5-Furandicarboxylic acid, 2,5-furandicarboxylic acid, reference compound] is ___
**Result** 3.4

**Query** // pKa lookup, key: O=C(O)c1ccccc1C(=O)O [Phthalic acid, phthalic acid, reference compound]
**Result** 3.9

**Query** Field request: pKa | item: O=C(O)c1cc(C(=O)O)c(C(=O)O)cc1C(=O)O [Pyromellitic acid, pyromellitic acid, reference compound]
**Result** 2.8
